- tested.on: T1, PACAP-R3 (human, UniProt P41587 24-438)
- T1 sequence (looked up): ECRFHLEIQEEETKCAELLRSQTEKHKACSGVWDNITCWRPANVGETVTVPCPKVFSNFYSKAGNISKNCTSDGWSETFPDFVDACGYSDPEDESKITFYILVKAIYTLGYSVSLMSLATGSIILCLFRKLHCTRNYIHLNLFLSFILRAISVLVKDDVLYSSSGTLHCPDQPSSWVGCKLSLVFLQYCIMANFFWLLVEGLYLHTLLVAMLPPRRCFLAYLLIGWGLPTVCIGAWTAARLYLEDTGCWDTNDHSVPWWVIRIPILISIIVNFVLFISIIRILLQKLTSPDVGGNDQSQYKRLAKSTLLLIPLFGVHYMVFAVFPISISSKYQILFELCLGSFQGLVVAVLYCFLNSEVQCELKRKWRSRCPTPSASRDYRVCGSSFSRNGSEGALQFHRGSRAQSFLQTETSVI
- assay.details: cell-based or functional assay
No end group written: not given here.
Values of R3 Selectivity greater than or equal to 100 ratio map to fulfilled; values below map to not fulfilled.

HSDAVFTDNYTRLRKQMAYKKYLNSIKNKR [R3P114] | not fulfilled
HSDAVFTDNYTRLRKQMAVKKYLNSIKK-NH2 [R3P8] | not fulfilled
HSDAVFTDNYTRLRKQMAGKKYLNSIKNKR [R3P100] | not fulfilled
HSDAVFTDNYTRLRKQMAAKKYLNSIHNKR [R3P121] | not fulfilled
HSDAVFTDNYTRLRKQMAAKKYLNSILN [R3P47] | not fulfilled

Determine whether measured R3 Selectivity meets or exceeds 100 ratio for HSDAVFTDNYTRLRKQMAVKKYLNDLKKGGT [R3P14] not fulfilled

Check the entry HSDAVFTDNYTRLRKQLAVKKYLNDILKGGT [R3P28] : does R3 Selectivity equal or exceed 100 ratio? not fulfilled

// inclusive: R3 Selectivity at least 100 ratio? input: HSDAVFTDNYTRLRKQMALKKYLNSIKNKR [R3P104] fulfilled

Form field: R3 Selectivity at least 100 ratio? Entry: HSDAVFTDQYTRLRKQMAAKKYLNSIKNKRY [R3P71] fulfilled

Has HSDAVFTDNYTRLRKQLAVKKYLNSILN [R3P46] a recorded R3 Selectivity greater than or equal to 100 ratio? not fulfilled

Identify whether the reported R3 Selectivity of the following binder is 100 ratio or greater: HSDAVFTDNYTRLRKQVAVKKYLQSILKK [R3P89] not fulfilled

Identify whether the reported R3 Selectivity of the following binder is 100 ratio or greater: HSDAVFTDNYTRLRKQMAAKKYLNSIQNKR [R3P126] fulfilled

hey, is R3 Selectivity for this one >= 100 ratio? HSDAVFTDNYTRLRKQMAHKKYLNSIKNKR [R3P101] fulfilled

Confirm if R3 Selectivity reported for the binder HSDAVFTDNYTRLRKQLAAKKYLNDIKK [R3P33] is 100 ratio or above. fulfilled
